ASSAY TARGET: T1, recombinant human TfR (2474-TR, R&D Systems), biotinylated (human, UniProt P02786 89-760, biotinylated with EZ-Link NHS-PEG4-Biotinylation Kit)
T1 construct: Bought protein; also called immobilized recombinant human TfR; biotinylated human TfR
T1 sequence (P02786 89-760 limits assumed): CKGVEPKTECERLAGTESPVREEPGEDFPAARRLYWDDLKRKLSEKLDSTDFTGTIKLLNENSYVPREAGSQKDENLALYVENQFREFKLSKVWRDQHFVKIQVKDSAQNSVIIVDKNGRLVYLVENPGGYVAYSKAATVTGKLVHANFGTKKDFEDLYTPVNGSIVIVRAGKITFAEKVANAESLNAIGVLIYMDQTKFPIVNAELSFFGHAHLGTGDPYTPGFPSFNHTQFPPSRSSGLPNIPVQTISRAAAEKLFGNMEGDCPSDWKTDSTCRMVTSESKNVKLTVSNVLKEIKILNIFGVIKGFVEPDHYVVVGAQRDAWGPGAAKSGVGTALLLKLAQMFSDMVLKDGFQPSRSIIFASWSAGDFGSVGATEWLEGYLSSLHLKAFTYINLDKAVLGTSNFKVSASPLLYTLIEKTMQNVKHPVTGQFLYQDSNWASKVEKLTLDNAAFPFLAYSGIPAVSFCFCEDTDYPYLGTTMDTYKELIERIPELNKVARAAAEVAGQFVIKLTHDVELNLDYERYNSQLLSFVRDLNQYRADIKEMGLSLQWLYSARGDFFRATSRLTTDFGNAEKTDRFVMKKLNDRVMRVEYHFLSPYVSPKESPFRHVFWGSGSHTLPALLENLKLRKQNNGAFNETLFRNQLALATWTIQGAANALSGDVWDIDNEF
ASSAY PROCEDURE: SPR (Biacore), ratio of the off rates on human TfR at the two pH values; the printed number equals kd at pH 5.5 divided by kd at pH 7.4
MEASUREMENT LABEL: off-rate ratio kd pH5.5/kd pH7.4
Answer using only a numeral; do not append any unit.

• BBB00736 (VHH, also called variant of BBB00515) VHH: EVQLVESGGGLVQAGGSLRLSCAASGSIFSINAMGWYRQAPGKQRELVAVITSGGSTIYADSVKGRFTISRDNAENTVYLQMNSLRPEDTAVYYCNAHVGLKVPTIQELSLGFGSWGQGTLVTVSS = 2.35
• BBB00738 (VHH, Histidine mutant) VHH: EVQLVESGGGLVQAGGSLRLSCAASGHIFSINAMGWYRQAPGKQRELVAVITSGGSTIYADSVKGRFTISRDNAENTVYLQMNSLRPEDTAVYYCNAHVGLKVPTIQELSLGFGSWGQGTLVTVSS = 1.86

Okay, next one:
Exercise: Give a short answer stating reported off-rate ratio kd pH5.5/kd pH7.4 for BBB00745 (VHH, Histidine mutant) VHH: EVQLVESGGGLVQAGGSLRLSCAASGSIFSINAHGWYRQAPGKQRELVAVITSGGSTIYADSVKGRFTISRDNAENTVYLQMNSLRPEDTAVYYCNAHVGLKVPTIQELSLGFGSWGQGTLVTVSS .
Solution: 2.08
